# system_under_test: Phosphorylase b kinase gamma catalytic chain, liver/testis isoform (Homo sapiens);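 note: reported value is the mean inhibition of PHKG2 from the GSK_PKIS screening set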
# assay_setup: at 1 µM
assay_readout: inhibition (%)
Numbers only, in %.

compound	quantity_unit	reported
O=C1Nc2ccccc2/C1=C/Nc1ccc(-n2cncn2)cc1	%	18.7
COc1ccc2ncn(-c3cc(O[C@H](C)c4ccccc4Cl)c(C(N)=O)s3)c2c1	%	5
CNC(=O)c1cncc(/C=C/c2c(C)cccc2C)c1	%	0.8
NC(=O)Cc1ccccc1Oc1nccc(-c2c(-c3ccc(F)cc3)ncn2C2CCNCC2)n1	%	0.83
NCc1ccc(-n2c(-c3nonc3N)nc3cnccc32)cc1	%	4.79
CCN(CC)Cc1ccc(Nc2nccc(-c3cnn4ncccc34)n2)cc1	%	15.3
CCc1nccc2c1nc(-c1nonc1N)n2CC	%	-2.03
COc1ccc2cc(-c3c(-c4ccncc4)nc(-c4ccc([S+](C)[O-])cc4C)n3C)ccc2c1 (stereo not given)	%	-1.4

Kindly give each listed record's inhibition.
1. Fc1ccc(-c2ncn(C3CCNCC3)c2-c2ccnc(Oc3ccc(F)c(F)c3)n2)cc1
2. CS(=O)(=O)CCNCc1ccc(-c2ccc3ncnc(Nc4ccc(OCc5ccccc5)c(Br)c4)c3c2)o1

output:
1. 4.7
2. 4.55

###

# system_under_test: Tyrosine-protein kinase JAK2 (Homo sapiens);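 note: mean JAK2 inhibition from the GSK PKIS screen, compounds tested at 1 µM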
# assay_setup: at 1 µM
# label = Y if inhibition >= 2% else N

input: Please tell me: is the molecule CN(C)CCCNc1nccc(-c2c(-c3ccc(F)cc3)nn3cc(C(F)(F)F)ccc23)n1 at or over 2% in terms of inhibition?
output: Y

###

Kindly supply the reported inhibition values for the records listed here.
# system_under_test: Ribosomal protein S6 kinase alpha-1 (Homo sapiens);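 note: values are mean percent inhibition of RSK1 measured in the GSK PKIS kinase inhibitor set screen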
# assay_setup: at 0.1 µM
Give bare numbers, in %.

Known results for compounds:
compound	inhibition (%)
O=C(NCC1CC1)c1ccc(-c2cccc(C(=O)NC3CC3)c2)cc1	-0.06
Clc1ccc(CNc2nccc(-c3cnn4ncccc34)n2)cc1	1.41

Kindly give each listed record's inhibition.
1. Nc1nccc(-c2c(-c3ccc(F)cc3)ncn2C2CCC(O)CC2)n1 (stereo not given)
2. COc1cc2ncn(-c3cc(OCc4ccccc4C(F)(F)F)c(C(C)=O)s3)c2cc1OC
3. COc1ccc(-c2ccc3c(NC(=O)C4CC4)n[nH]c3n2)cc1
4. Cc1nnc(-c2ccc(C)c(-c3ccc(C(=O)NCc4ccc(Cl)cc4)cc3)c2)o1

output:
[-0.24, 1.38, 0.22, 2.78]

Kindly give each listed record's inhibition.
1. COc1ccc2cc(-c3c(-c4ccncc4)nc(-c4ccc(S(C)(=O)=O)cc4C)n3C)ccc2c1
2. CCc1ccc(Oc2nccc(-c3c(-c4ccc(F)cc4)ncn3C3CCNCC3)n2)cc1
3. O=C(Nc1n[nH]c2cc(-c3cc(F)ccc3F)ccc12)C1CC1
4. NC(=O)c1ccc(Oc2nccc(-c3c(-c4ccc(F)cc4)ncn3C3CCNCC3)n2)cc1
5. FC(F)(F)c1cccc(Nc2nccc(-c3cnn4nc(-c5ccccc5)ccc34)n2)c1
6. CS(=O)(=O)CCNCc1cc(-c2cc3c(Nc4ccc(OCc5cccc(F)c5)c(Cl)c4)ncnc3s2)cs1
7. CS(=O)(=O)CCNCc1ccc(-c2ccc3ncnc(Nc4ccc(OCc5ccccc5)c(Br)c4)c3c2)o1

output:
[6.01, 2.14, 0.64, 2.06, 1.01, -0.03, -0.49]

###

Kindly supply the reported inhibition values for the records listed here.
# system_under_test: Calcium/calmodulin-dependent protein kinase type 1D (Homo sapiens);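 note: reported figure is the mean inhibition of CAMK1D, from the GSK PKIS screening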
# assay_setup: at 0.1 µM
Numbers only, in %.

Known results for molecules:
COc1cc(C)c(N(C)C(=O)CN(C)C)cc1Nc1nc(Nc2cccc(F)c2C(N)=O)c2cc[nH]c2n1 1.27
COc1cc2ncn(-c3cc(OCc4ccccc4C(F)(F)F)c(C(C)=O)s3)c2cc1OC -0.05
CCc1nccc2c1nc(-c1nonc1N)n2CC 1.07
O=C(Nc1n[nH]c2nc(-c3ccc(O)cc3)c(Br)cc12)C1CC1 3.09
NS(=O)(=O)c1ccc(Nc2cc(-c3ccc(O)c(F)c3)n[nH]2)cc1 -0.17

As a next step, examine the molecule that follows.
input: Returns the measured inhibition for the input molecule. Input: O=C1Nc2ccccc2/C1=C/Nc1ccc(-n2cncn2)cc1
output: 0.18
